molecular target: T1, SLP on cells of C. difficile strain BI-7 (ribotype 027) (Clostridioides difficile BI-7 (ribotype …, UniProt A0A9R0BMB3, strain)); test: ELISA; whole cell ELISA: formalin-fixed C. difficile cells coated on MaxiSorp plates, His6-tagged VHH at 10 μg/ml in PBS-T, 37 °C, 1 h, detected with anti-His6-HRP; settings: one partner purified
T1 construct: LMW subunit of the surface layer protein (from the precursor SlpA), C. difficile strain BI-7, ribotype 027; HMW subunit of the surface layer protein (from the precursor SlpA), C. difficile strain BI-7, ribotype 027; Whole cells were the antigen; source: endogenous, on formalin-fixed C. difficile BI-7 cells
Readout Name: binding result

Below are worked cases with known answers.
Binder	binding result
SLP_VHH50 (VHH, From an immune llama phage display library panned on QCD-32g58 SLP; source: monomeric SEC fractions for SPR; not shown: His6, C-terminal, kept) VHH: QVKLEESGGGLVQPGGSLRLSCAASGFTLDYYTIGWFRQAPGKEREGVACISSDDRTYYVDSVKGRFAISRDNVKNTVYLQMNNLKPEDTAVYYCASKESVFLIATMKGCAPGHDDYWGQGTQVTVSS	binds
SLP_VHH49 (VHH, From an immune llama phage display library panned on QCD-32g58 SLP; source: monomeric SEC fractions for SPR; not shown: His6, C-terminal, kept) VHH: QVKLEESGGGLVQAGGSLRLSCAASEGAFSDALSRHAAGWFRQAPGKEREFVAAISWNGANTDYKNSVNNRFTISRDTSKNTVYLQMNSLKPEDTAVYYCAAKNEPSWISRIYYRGLEYDYWGQGTQVTVSS	binds
SLP_VHH22 (VHH, From an immune llama phage display library panned on QCD-32g58 SLP; source: monomeric SEC fractions for SPR; not shown: His6, C-terminal, kept) VHH: QVQLVESGGGLVQPGGSLRLSCAASGFTLDSYAIGWFRQAPGKEHEGISCISSNGGSTYYTDSVKGRFTISRDNAKNTVYLQMNSLESEDSAVYYCATVRRCSSLDMALGALATRTKGYDYWGQGTQVTVSS	binds
SLP_VHH46 (VHH, From an immune llama phage display library panned on QCD-32g58 SLP; source: monomeric SEC fractions for SPR; not shown: His6, C-terminal, kept) VHH: QVKLEESGGGLVQAGGSLRLSCADSERTFRIYTMAWFRQAPGKERDFVAAISWSGGSTYYADSVKGRFTISRDNAKNTVYLPMNSLKPDDTAVYYCASGGVLSTGSQSDSEYDFWGQGTQVTVSS	binds
SLP_VHH12 (VHH, From an immune llama phage display library panned on QCD-32g58 SLP; source: monomeric SEC fractions for SPR; not shown: His6, C-terminal, kept) VHH: QVQLVESGGGLVQAGDSLRLSCAASGGTFSSYAVGWFRQAPGKERQFVAAISWSGRSTEYADSVKGRFTISRDNAKNTVYLQMNSLQPDDTGVYYCAADWSHPENKAELLRLRLWVLSAESSDYWGQGTQVTVSS	binds

Query :: Look up binding result for this binder: SLP_VHH26 (VHH, From an immune llama phage display library panned on QCD-32g58 SLP; source: monomeric SEC fractions for SPR; not shown: His6, C-terminal, kept) VHH: QVKLEESGGGLVQAGGSLRLSCAASGRTFTNYAMAWFRQASGKEREFVAIISQSGGRTYYGDSVKGRFTISRDNAKNTVYLQLNSLQPEDTGVYYCAAGDSPYYYSRSRYDLWGPGTQVTVSS
Result :: binds

Query :: // repeat for SLP_VHH2 (VHH, From an immune llama phage display library panned on QCD-32g58 SLP; source: monomeric SEC fractions for SPR; not shown: His6, C-terminal, kept) VHH: QVKLEESGGGLVQPGGSLRLSCAASGGTFTNYAMAWFRQTPGNDREFVGIISQKGGRTYYADSVKGRFSVSRDNAKNTAYLQMNSLKPEDTAVYYCAAGDSSYYYTRSRYDIWGQGTQVTVSS and report
Result :: binds

Query :: SLP_VHH23 (VHH, From an immune llama phage display library panned on QCD-32g58 SLP; source: monomeric SEC fractions for SPR; not shown: His6, C-terminal, kept) VHH: QVQLVESGGGLVQAGGSLRLSCAASGRTFSSYAVGWFRQAPGKEREFVAAISWSGGYTDYADSVKGRFTISRDNAKNTVYLQMNNLKPEDTAVYYCAADWSHPENKAELLRLRLWVLSAESSDDWGQGTQVTVSS , same question.
Result :: binds

Query :: Let us now turn to SLP_VHH5 (VHH, From an immune llama phage display library panned on QCD-32g58 SLP; source: monomeric SEC fractions for SPR; not shown: His6, C-terminal, kept) VHH: QVKLEESGGGLVQAGGSLRLSCAASRLTFSTYHMGWFRQAPGKEREFVAALSWSGGTTYYADSVKGRFGISRDNAKNTVYLQMNSLKPEDTAVYYCASGGVLATMNSDEYDYWGQGTQVTVSS
Result :: binds
